Measured values drawn from patent US20250230154A1 for this set.

Biological target: SHP2 protein (Homo sapiens, UniProt Q06124)
Sequence (Q06124 whole entry): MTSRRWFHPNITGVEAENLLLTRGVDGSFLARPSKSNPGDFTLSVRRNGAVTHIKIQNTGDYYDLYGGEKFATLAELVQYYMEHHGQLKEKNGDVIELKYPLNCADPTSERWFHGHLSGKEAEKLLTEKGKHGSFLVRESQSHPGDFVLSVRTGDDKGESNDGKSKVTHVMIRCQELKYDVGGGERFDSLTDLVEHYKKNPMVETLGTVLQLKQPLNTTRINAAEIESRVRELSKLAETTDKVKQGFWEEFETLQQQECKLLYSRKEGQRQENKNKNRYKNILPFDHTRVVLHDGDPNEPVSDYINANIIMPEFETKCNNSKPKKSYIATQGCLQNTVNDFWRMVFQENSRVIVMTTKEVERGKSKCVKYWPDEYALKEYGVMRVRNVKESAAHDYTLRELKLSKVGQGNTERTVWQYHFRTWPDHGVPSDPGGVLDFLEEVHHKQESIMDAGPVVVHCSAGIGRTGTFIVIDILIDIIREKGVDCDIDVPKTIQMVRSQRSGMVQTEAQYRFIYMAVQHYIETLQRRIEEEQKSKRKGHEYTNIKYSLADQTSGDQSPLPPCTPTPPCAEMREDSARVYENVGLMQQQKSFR
Assay: Measurement of SHP2 protein degradation in MV-4-11 cells (western blotting)
Assay type: cell-based
Design: endogenous in cells; host or cells: MV-4-11
Conditions: MV-4-11 cells, 100 nM, 24 hours
assay_readout: SHP2 degradation (%) 100 nM

structure_string=Cc1ncsc1-c1ccc(CNC(=O)[C@@H]2C[C@@H](O)CN2C(=O)[C@@H](NC(=O)C2(F)CC2)C(C)(C)C)c(OCCCN2CCN(C(=O)CC(=O)Nc3cccc(Sc4cnc(N5CCC(C)(CN)CC5)cn4)c3Cl)[C@H](C)C2)c1 recorded_value=95.4
structure_string=Cc1ncsc1-c1ccc(CNC(=O)[C@@H]2C[C@@H](O)CN2C(=O)[C@@H](NC(=O)C2(F)CC2)C(C)(C)C)c(OCCN2CCN(C(=O)CC(=O)Nc3cccc(Sc4cnc(N5CCC(C)(CN)CC5)cn4)c3Cl)C[C@H]2C(=O)O)c1 recorded_value=81.9
structure_string=Cc1ncsc1-c1ccc(CNC(=O)[C@@H]2C[C@@H](O)CN2C(=O)[C@@H](NC(=O)C2(F)CC2)C(C)(C)C)c(OCCN2CCN(C(=O)CC(=O)Nc3cccc(Sc4cnc(N5CCC(C)(CN)CC5)cn4)c3Cl)[C@H](C)C2)c1 recorded_value=96
structure_string=CC(=O)N[C@H](C(=O)N1C[C@H](O)C[C@H]1C(=O)NCc1ccc(-c2scnc2C)cc1OCCC1CCN(C(=O)CC(=O)Nc2cccc(Sc3cnc(N4CCC(C)(CN)CC4)cn3)c2Cl)CC1)C(C)(C)C recorded_value=93
structure_string=Cc1ncsc1-c1ccc(CNC(=O)[C@@H]2C[C@@H](O)CN2C(=O)[C@@H](NC(=O)C2(F)CC2)C(C)(C)C)c(OCCN2CC3CCC(C2)N3C(=O)CC(=O)Nc2cccc(Sc3cnc(N4CCC(C)(CN)CC4)cn3)c2Cl)c1 recorded_value=98.3
